Measured values drawn from ChEMBL document CHEMBL1201862 for this set.

system: SW-620; assay: NCI tumour cell line growth inhibition, 48 h
The source made the active and inactive calls. No stated cut-off is given here; in the data, active = GI50 up to about 1.1 µM and inactive = higher.
Please respond with reported GI50 for every item in the list.

> print(dat)
                                    compound  reported.measurement
 1  C=CCOc1ccc(C2(c3ccc(OCC=C)cc3)C(=O)Nc3ccccc32)cc1    > 10 µM (inactive)
 2  O=C(c1ccccc1)c1ccc(N2C(=O)/C(=C/c3ccccc3S)N=C2c2ccccc2)c(N2C(=O)/C(=C/c3ccccc3S)N=C2c2ccccc2)c1    43.2 µM (inactive)
 3  CC(=O)N1C(C(=O)NNc2ccccc2)CSC1c1ccccc1 (stereo not given)   > 100 µM (inactive)
 4  CC(C)(C)c1cc(C(=O)O)c2c(c1)C(=O)OC2(c1ccccc1)c1ccccc1C(=O)O (stereo not given)   > 100 µM (inactive)
 5  CSc1ccc2c(cc1=O)[C@@H](NC(=O)c1ccc([N+](=O)[O-])cc1)CCc1cc(O)c(O)c(O)c1-2    43.6 µM (inactive)
 6  O=C1CCC(=O)C(C(=O)CCC(=O)Nc2ccc(Cl)cc2)C1 (stereo not given)   > 100 µM (inactive)
 7  CC1=C(C(=O)Nc2ccccc2)C(c2cc(Cl)cc(Cl)c2)C(C(=O)Nc2ccccc2)=C(C)N1    8.28 µM (inactive)
 8  CC1CN1c1c(C(=O)/C=C/c2ccc(F)cc2)c(-c2ccccc2)nn(C)c1=O (stereo not given)    17.9 µM (inactive)
 9  Nc1ccccc1.O=P(O)(OP(=O)(O)c1ccccc1)c1ccccc1   > 100 µM (inactive)
10  CC1(C)OC2[C@@H](CO[C@@]3([C@H]4OC(C)(C)O[C@@H]4CO)OC(C)(C)O[C@@H]23)O1 (stereo not given in full)   > 100 µM (inactive)

Here are 5 compounds. What values of GI50 were reported for them?
1. CCCC(CC)c1cc(O)c(O)cc1C(CC)CCC (stereo not given)
2. [O-]c1c[n+](CCCC[n+]2cc([O-])on2)no1
3. O=c1c2cc(S(=O)(=O)Nc3ccccc3Cl)ccc2ncn1NS(=O)(=O)c1ccc(Br)cc1
4. Cn1c(O)c(C(=O)Nc2ccc([N+](=O)[O-])cc2)c(=O)n(C)c1=S
5. CCOC(=O)NC(C(F)(F)F)(C(F)(F)F)P(=O)(OCC)OCC

["> 10 µM (inactive)", "> 100 µM (inactive)", "> 37.5 µM (inactive)", "3.49 µM (inactive)", "17.9 µM (inactive)"]

###

system: M14; experiment: NCI tumour cell line growth inhibition, 48 h
Calls of active or inactive are those of the source. No stated cut-off is given here; in the data, active = GI50 up to about 1.1 µM and inactive = higher.
Please respond with reported GI50 for every item in the list.

> print(dat)
                                   molecule  reported.measurement
1  CCOC(=O)NC(Nc1ccc(OC(F)(F)F)cc1)(C(F)(F)F)C(F)(F)F   > 100 µM (inactive)
2  COc1ccc(C=O)cc1OS(=O)(=O)C(F)(F)C(F)(F)C(F)(F)C(F)(F)F      28 µM (inactive)
3  C[C@]12CC[C@H](O)C[C@@H]1CC[C@@H]1[C@@H]2CC[C@]2(C)[C@@H](C3=CC(=O)OC3)CC[C@]12O    3.45 µM (inactive)
4  O=C1C2C=CC(C2)C(c2ccc(O)cc2)N1O (stereo not given)   > 100 µM (inactive)
5         CCN(CC)C(=S)SS(=O)(=O)c1ccc(C)cc1    13.9 µM (inactive)
6  O=C1CCC(=O)C(C(=O)CCC(=O)Nc2ccc(Cl)cc2)C1 (stereo not given)   > 100 µM (inactive)
7              NC(=S)NS(=O)(=O)c1ccc(F)cc1F   > 100 µM (inactive)
8  CC(=O)n1nc(-c2ccccc2)n(/N=C/c2ccc([N+](=O)[O-])cc2)c1=O   > 100 µM (inactive)
9  COC(=O)C1CCC(=O)N1CN(C(C)=O)c1ccccc1 (stereo not given)   > 100 µM (inactive)

Now consider the entry below.
Per the record, CC(C)(C)OC(=O)N1N=NC2C3OC(CC3=O)C21 (stereo not given) has GI50 of > 100 µM (inactive)
